target: Alpha-2A adrenergic receptor (Homo sapiens, UniProt P08913); test: Displacement of [3H]RX 821002 from recombinant human alpha2A receptor measured after 60 mins by scintillation counting analysis
Sequence (P08913 whole entry): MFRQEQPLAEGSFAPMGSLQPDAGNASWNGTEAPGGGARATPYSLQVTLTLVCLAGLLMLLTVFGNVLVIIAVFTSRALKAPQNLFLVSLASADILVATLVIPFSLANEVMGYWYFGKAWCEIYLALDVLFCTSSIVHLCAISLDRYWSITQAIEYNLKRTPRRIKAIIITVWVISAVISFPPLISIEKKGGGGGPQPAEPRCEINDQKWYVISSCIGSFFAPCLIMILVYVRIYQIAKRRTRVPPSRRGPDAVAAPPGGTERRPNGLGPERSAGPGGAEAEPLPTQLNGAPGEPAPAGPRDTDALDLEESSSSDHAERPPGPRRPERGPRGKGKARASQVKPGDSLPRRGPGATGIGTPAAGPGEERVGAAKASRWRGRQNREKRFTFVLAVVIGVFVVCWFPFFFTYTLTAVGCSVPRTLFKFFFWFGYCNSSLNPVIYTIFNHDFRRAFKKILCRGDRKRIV
Answer each item with its documented pKi.
By convention, pKi is the negative base-10 log of a molar concentration.

[Q] # lookup: pKi of [2H]c1c([2H])c([2H])c([C@@H]2C[C@@H](N3CCNC(C)(C)C3)c3cc(Cl)ccc32)c([2H])c1[2H]
[A] 5.60

[Q] Ok, now [2H]c1c([2H])c([2H])c([C@@H]2C[C@@H](N3CCN(C([2H])([2H])[2H])C(C)(C)C3)c3cc(Cl)ccc32)c([2H])c1[2H]
[A] 6.25
